These measurements were taken from PubChem BioAssay (NCI).

Each entry below carries its reported growth inhibition.
assay protocol: NCI Yeast Anticancer Drug Screen. Data for the rad18 strain (AID 177)
setup conditions: S. cerevisiae rad18 mutant growth inhibition; at 100.0 µM; stronger effect = higher value
This is part of a sample that, as a whole, favours compounds with a hit. Of some 79,000 tested, about 15% had one in any assay.
Answer format: numeric, % implied, no suffix.

                              compound  unit_info  measurement
0  CC(C)c1ccc(NC(=S)NC(=O)c2ccccc2)cc1          %           26

Attention now shifts to the item below.
Please give the documented growth inhibition of CCCCCCN(CCCCCC)CC(O)c1ccnc2ccc(OC)cc12 (stereo unspecified) 35

====

assay protocol: NCI Yeast Anticancer Drug Screen. Data for the wt1 strain (AID 149);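 note: 0% = growth of vehicle-treated wt1 cultures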
setup conditions: S. cerevisiae wt1 strain (SPY 50644) growth inhibition; at 11.0 µM; stronger effect = higher value
This is part of a sample that, as a whole, favours compounds with a hit. Of some 79,000 tested, about 15% had one in any assay.
Binary classification by growth inhibition, with -10% as an inclusive lower bound for met; all other cases are not met.

                                   molecule  group_label
0  CNC(=O)OCc1c(COC(=O)NC)c2n(c1C)-c1ccc(OC)cc1CCC2      not met
1       CCCCOC(=O)Nc1ccc(C)c(NC(=O)OCCCC)c1          met
2             COc1cc(CSc2ccc(O)cc2)cc(O)c1O          met

State whether the measured growth inhibition reaches -10%, counting equality as reaching it, for COc1nc2c(c(=O)n1C)N=C(c1ccccc1)[C@H](C(CC(=O)c1ccccc1)c1ccccc1)C(c1ccccc1)N2 (stereo not given in full) not met

State whether the measured growth inhibition reaches -10%, counting equality as reaching it, for CC(=O)OC1CC2C(C)(C)C(=O)C=C[C@]2(C)C2CCC3(C)C(=CCC3[C@H](CO)C[C@H](O)C(=O)C(C)(C)O)[C@]12C (stereo not given in full) not met

Reported growth inhibition at or above -10%? NC1=NNC2(C(N)=N1)c1ccccc1-c1ccccc12 met

Is growth inhibition at least -10%? Consider O=C(/C=C/c1cc(Cl)cc(Cl)c1O)c1cccc(O)c1 met

Confirm if growth inhibition reported for the molecule CCOC(=O)c1ccc(NC(=O)O/N=C(/Cl)C(C)C)cc1 is -10% or above. not met

Item CCOC(=O)C1N=[N+](c2ccccc2)C(=O)/C1=C\n1c(=S)[nH]c2ccc([N+](=O)[O-])cc21 (stereo not given) with growth inhibition of -10% or above? met

Textbook exercise: given the entry COc1cc2cc3c4cc(OC)c(OC)cc4cc[n+]3c(C)c2cc1OC , state whether its growth inhibition is greater than or equal to -10%. not met

====

assay protocol: NCI Yeast Anticancer Drug Screen. Data for the rad52 strain (AID 147);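 note: 0% = growth of vehicle-treated control cultures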
setup conditions: S. cerevisiae rad52 mutant growth inhibition; at 100.0 µM; stronger effect = higher value
Description: Growth inhibition of yeast strains with defined genetic alterations is measured as a screen for potential anti-cancer activity. Selected strains with alterations in DNA damage repair or cell cycle control were exposed to compounds and growth inhibition was measured relative to vehicle treated controls. The strain used in this assay is rad52
About 79,000 compounds went through this panel and 15% of them were active in at least one assay; those are over-represented in the sample as a whole.
parameter: growth inhibition (%)
Answer format: numeric, % implied, no suffix.

Example entries and their recorded answers appear below.
                                   molecule          parameter  unit_info  measurement
0  CN(C)CCNC(=O)c1cccc2cc([N+](=O)[O-])ccc12  growth inhibition          %           96
1  COc1cc2ccnc(-c3c4ccccc4c(N)c4c(OC)c(OC)ccc34)c2cc1OC  growth inhibition          %           93
2  Cc1ccc(NC(c2ccccc2)c2ccc3cccnc3c2O)cc1 (stereo unspecified)  growth inhibition          %           -2

Complete the entry with growth inhibition for Cc1cc(-c2cc(C)c(O)c(C(C)(C)C)c2)cc(C(C)(C)C)c1O 75

Identify the reported growth inhibition for the following entry. CCOC(=O)c1cc([N+](=O)[O-])c(Sc2ncnc3nc[nH]c23)c([N+](=O)[O-])c1 90

Please list growth inhibition recorded for the molecule CCOc1ccccc1N=Cc1c2ccccc2cc2ccccc12 99

In one line, give reported growth inhibition of the entry CC(C)OC(=O)Nc1ccc2nc(-c3cscn3)[nH]c2c1 . 87

Fill in growth inhibition for record CCOC(=O)C(C(=O)OCC)=P(c1ccccc1)(c1ccccc1)c1ccccc1 95

Specify reported growth inhibition for the molecule shown: Cc1ccc2nc(-c3cccc([N+](=O)[O-])c3)oc(=O)c2c1 -10

Output measured growth inhibition for this item: Cc1ccc(S/C(=C\C(=O)O)c2ccccc2)cc1 46

Retrieve growth inhibition measured for O=C1C=C(Cl)C(=O)C(c2ccc(Cl)cc2)=C1 and print it. 96

====

assay protocol: NCI Yeast Anticancer Drug Screen. Data for the CLN2oe strain (AID 163);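 note: 0% = growth of vehicle-only control cultures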
setup conditions: S. cerevisiae CLN2oe strain, at 33.0 µM, stronger effect = higher value
This is part of a sample that, as a whole, favours compounds with a hit. Of some 79,000 tested, about 15% had one in any assay.
parameter: growth inhibition (%)
Supply the numeric figure in %, leaving out any unit text.

See these solved cases before continuing.
>>> print(df.to_string())
                                   compound  measurement
0  CC1=C(C(=O)NCc2ccccc2)C(c2ccccc2)C(C(=O)NCc2ccccc2)=C(C)N1            4
1  O=c1nc2n(Cc3ccccc3)c3ccccc3nc-2c(=O)[nH]1            5
2  CCCC(O)C1CC(C(C)C)CCC1C (configuration not stated)            4
3  CCCCCCCCCCCC(O)S(=O)(=O)O (configuration not stated)           -2
4  CCC(C)NC1=NCC(C)S1 (configuration not stated)            0

Check the records and state growth inhibition for COc1ccc([N+](=O)[O-])c2c(NCCCN(C)C)c3ccccc3nc12 8

====

# maps each entry to its growth inhibition
assay protocol: NCI Yeast Anticancer Drug Screen. Data for the mgt1 strain (AID 153)
setup conditions: S. cerevisiae mgt1 mutant growth inhibition; at 3.7 µM; stronger effect = higher value
The panel holds about 79,000 compounds, 15% with a hit somewhere; the sample as a whole holds those more often.
Enter your answer as a number in %; do not include the unit.

Return value of growth inhibition for input COc1ccc(C(=O)C(CN(C)C)CN(C)C)cc1 , no commentary. -12

Give me measured growth inhibition, please, for this molecule: COc1ccc(/C=C2\NC(=S)N(/C=C3\C(=O)Oc4ccccc4C3=O)C2=O)cc1 -5

Note down growth inhibition recorded for CC(C)(C)c1ccc(NS(=O)(=O)c2ccc(N)cc2)cc1 -1

Read off the recorded growth inhibition for CCCCCCSc1ncnc2[nH]ncc12 -1

Return reported growth inhibition. Input molecule: Cc1c(C)c(C)c(CSC(=N)N)c(C)c1C -50

Supply growth inhibition value. Item: CC[N+](CC)(CC)c1ccccc1 1

Give reported growth inhibition value for COC(=O)/C=C(/C(=O)OC)C(Cl)(Cl)Cl -3

====

assay protocol: NCI Yeast Anticancer Drug Screen. Data for the bub3 strain (AID 167)
setup conditions: S. cerevisiae bub3 mutant strain, at 11.0 µM, stronger effect = higher value
This is part of a sample that, as a whole, favours compounds with a hit. Of some 79,000 tested, about 15% had one in any assay.
Give yes when the value for growth inhibition is at least 20%. Give no when it is less.

These recorded examples may help you get a feel for the data.
                                   compound  group_label
0  Cc1cc(N(CCOS(C)(=O)=O)CCOS(C)(=O)=O)ccc1C=Nc1ccc(-c2nc(Cc3ccccc3)sc2C)cc1          yes
1       NC1=NNC2(C(N)=N1)c1ccccc1-c1ccccc12          yes
2  NCCNCCNc1ccc(NCCNCCN)c2c1C(=O)c1c(O)ccc(O)c1C2=O           no
3  O=C1C=C(c2ccccc2)OC1(c1ccccc1)N1CCOCC1 (stereo not given)           no

Okay, now this compound:
I'd appreciate it if you could say whether CCCCCCCCCCCCCCCCOP(=O)(O)OCC(N)C(=O)O (stereo not given) has growth inhibition at least equal to 20%. yes

====

Listed below: growth inhibition values for each entry.
assay protocol: NCI Yeast Anticancer Drug Screen. Data for the wt1 strain (AID 149);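 note: 0% = growth of vehicle-treated wt1 cultures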
setup conditions: S. cerevisiae wt1 strain (SPY 50644) growth inhibition; at 3.7 µM; stronger effect = higher value
Compounds without any hit were thinned out: in the full panel of roughly 79,000, 15% have a hit. Active and inactive are the calls of the source. Rule as the data show it: active = growth inhibition above about 70%; inactive = the rest.

Worked cases, answers included:
>>> print(df.to_string())
                                   molecule     measurement
0  CC(C)(CCCCC(C)(C)[N+](C)(C)C)[N+](C)(C)C   0% (inactive)
1            N#CNC(N)=Nc1cc2ccccc2c2ccccc12  25% (inactive)
2  COc1oc(C(=O)NC2CCCCC2)c(-c2ccc(Cl)cc2)c1S(=O)(=O)c1ccccc1  -5% (inactive)

Could you please provide reported growth inhibition for CC[N+](CC)(CC)c1ccccc1 ? Thanks! -27% (inactive)

Let me know recorded growth inhibition for O=Cc1ccc2c(c1)C(=O)c1ccccc1C2=O , thanks. -1% (inactive)

Give the measured growth inhibition for O=C1C=C(Cl)C(=O)C(c2ccc(Cl)cc2)=C1 5% (inactive)

State its growth inhibition: CS(=O)(=O)OCCN(CCOS(C)(=O)=O)c1ccc(C=Nc2ccc(-c3csc(COc4ccccc4)n3)cc2)cc1 -33% (inactive)

Report growth inhibition, nothing else, for this molecule: O=C1C(Br)=C(c2ccccc2)O/C1=C/C(=O)c1ccc(Br)cc1 5% (inactive)

Kindly indicate its recorded growth inhibition. Item: CN(C)CCNC(=O)c1cccc2cc([N+](=O)[O-])ccc12 8% (inactive)

Hello, please tell me recorded growth inhibition for this one: Oc1ccc(SCc2ccc(NCc3ccccc3)cc2)cc1 -35% (inactive)

Recall and state the measured growth inhibition for CCOC(=N)c1ccc(O)c(OC)c1 . -2% (inactive)
